# EXPERIMENTAL_DETAILS: Transport across Caco-2 cell monolayers, apical to basolateral
# Assay type: in vitro ADME, human
# PARTICULARS: human, Caco-2, pH 7.4; 106 μM; read-out: apparent permeability coefficient Papp at 106 μM
VALUE_TYPE: Papp at 100 min, 106 μM

INSERT INTO measurements (compound, value_type, measured_value) VALUES
  ('CCCCCCCCCCCCCCCC(=O)OCC/C=C/c1ccc(OC)c(OC)c1', 'Papp at 100 min, 106 μM', '8.6 ×10⁻⁶ cm/s'),
  ('COc1ccc(/C=C/CCO)cc1OC [Compound D, (E)-4-(3,4-dimethoxyphenyl)but-3-en-1-ol]', 'Papp at 100 min, 106 μM', '16.4 ×10⁻⁶ cm/s'),
  ('CCCCC/C=C\C/C=C\CCCCCCCC(=O)OCC/C=C/c1ccc(OC)c(OC)c1', 'Papp at 100 min, 106 μM', '14.3 ×10⁻⁶ cm/s'),
  ('CCCCCCCC/C=C\CCCCCCCC(=O)OCC/C=C/c1ccc(OC)c(OC)c1', 'Papp at 100 min, 106 μM', '10.1 ×10⁻⁶ cm/s');

----------
# Test system: Caco-2 cell monolayers
# EXPERIMENTAL_DETAILS: Transport across Caco-2 cell monolayers, apical to basolateral
# Format: in vitro ADME, human
# PARTICULARS: 53 μM, apical to basolateral, pH7.4, mean (SD), n = 3
Listed here: items and their measured Papp at 53 μM.
VALUE_TYPE: Papp at 53 μM

INSERT INTO results (compound, measured_value) VALUES
  ('CCCCCCCCCCCCCCCC(=O)OCC/C=C/c1ccc(OC)c(OC)c1', '7.48 (0.31)** 10^-6cm/s'),
  ('CCCCC/C=C\C/C=C\CCCCCCCC(=O)OCC/C=C/c1ccc(OC)c(OC)c1', '13.94 (0.60) 10^-6cm/s'),
  ('COc1ccc(/C=C/CCO)cc1OC [Compound D, (E)-4-(3,4-dimethoxyphenyl)but-3-en-1-ol]', '8.53 (0.83)** 10^-6cm/s'),
  ('CCCCCCCC/C=C\CCCCCCCC(=O)OCC/C=C/c1ccc(OC)c(OC)c1', '9.45 (0.29) 10^-6cm/s');
